# System: H1N1N09
# assay: Influenza inhibition assay (ICC on MDCK cells)
# Format: cell-based, Influenza A/Netherlands/602/2009 (H1N1)
# experimentalSetup: Influenza A virus, dose–response
Field: IC50. Provide a value for each of the compounds that follow.
Give bare numbers, in µM.

Bench note: what IC50 did O=S(=O)(O)CCCCCCCCCCCSCc1cc2c(cc1CSCCCCCCCCCCCS(=O)(=O)O)OCCOCCOc1cc(CSCCCCCCCCCCCS(=O)(=O)O)c(CSCCCCCCCCCCCS(=O)(=O)O)cc1OCCOCCO2 show?
15.8

Continuing:
Bench note: what IC50 did O=S(=O)(O)OCCCCCCSCc1cc(CSCCCCCCOS(=O)(=O)O)cc(CSCCCCCCOS(=O)(=O)O)c1 show?
347

----------
# assayedTarget: glycoprotein D (gD) of HSV
# assay: Isothermal titration calorimetry with glycoprotein D
# experimentalSetup: ITC, 25°C
Field: Kd. Provide a value for each of the molecules that follow.
One number for each entry, in µM.

Query the reported Kd for glycoprotein D (gD) of HSV; item: O=S(=O)(O)CCCCCCSCc1cc(CSCCCCCCS(=O)(=O)O)cc(CSCCCCCCS(=O)(=O)O)c1
14.2

// input: 2 molecules below; output: Kd for each
1. O=S(=O)(O)CCCCCCCCCCCSCc1cc2c(cc1CSCCCCCCCCCCCS(=O)(=O)O)OCCOCCOc1cc(CSCCCCCCCCCCCS(=O)(=O)O)c(CSCCCCCCCCCCCS(=O)(=O)O)cc1OCCOCCO2
2. O=S(=O)(O)OCCCCCCCCCCCSCc1cc2c(cc1CSCCCCCCCCCCCOS(=O)(=O)O)OCCOCCOc1cc(CSCCCCCCCCCCCOS(=O)(=O)O)c(CSCCCCCCCCCCCOS(=O)(=O)O)cc1OCCOCCO2

1: 83.5; 2: 141

----------
# assay: CMC assay (conductivity method)
# Assay type: physicochemical
# experimentalSetup: in water
Field: CMC. Provide a value for each of the molecules that follow.
Answers are plain numbers, in µM.

Worked examples follow.
Bench note: what CMC did O=S(=O)(O)OCCCCCCCCCCCSCc1cc(CSCCCCCCCCCCCOS(=O)(=O)O)cc(CSCCCCCCCCCCCOS(=O)(=O)O)c1 [B3C11SO4] show?
556

Bench note: what CMC did O=S(=O)(O)CCCCCCCCCCCSCc1cc2c(cc1CSCCCCCCCCCCCS(=O)(=O)O)OCCOCCOc1cc(CSCCCCCCCCCCCS(=O)(=O)O)c(CSCCCCCCCCCCCS(=O)(=O)O)cc1OCCOCCO2 [C4C11SO3] show?
237

Continuing:
Bench note: what CMC did O=S(=O)(O)OCCCCCCCCCCCSCc1cc2c(cc1CSCCCCCCCCCCCOS(=O)(=O)O)OCCOCCOc1cc(CSCCCCCCCCCCCOS(=O)(=O)O)c(CSCCCCCCCCCCCOS(=O)(=O)O)cc1OCCOCCO2 [C4C11SO4] show?
1003

----------
Field: Kd. Provide a value for each of the molecules that follow.
# assayedTarget: BSA (Bos taurus, UniProt P02769)
# Construct: purchased Sigma-Aldrich
# Sequence (P02769 25-607): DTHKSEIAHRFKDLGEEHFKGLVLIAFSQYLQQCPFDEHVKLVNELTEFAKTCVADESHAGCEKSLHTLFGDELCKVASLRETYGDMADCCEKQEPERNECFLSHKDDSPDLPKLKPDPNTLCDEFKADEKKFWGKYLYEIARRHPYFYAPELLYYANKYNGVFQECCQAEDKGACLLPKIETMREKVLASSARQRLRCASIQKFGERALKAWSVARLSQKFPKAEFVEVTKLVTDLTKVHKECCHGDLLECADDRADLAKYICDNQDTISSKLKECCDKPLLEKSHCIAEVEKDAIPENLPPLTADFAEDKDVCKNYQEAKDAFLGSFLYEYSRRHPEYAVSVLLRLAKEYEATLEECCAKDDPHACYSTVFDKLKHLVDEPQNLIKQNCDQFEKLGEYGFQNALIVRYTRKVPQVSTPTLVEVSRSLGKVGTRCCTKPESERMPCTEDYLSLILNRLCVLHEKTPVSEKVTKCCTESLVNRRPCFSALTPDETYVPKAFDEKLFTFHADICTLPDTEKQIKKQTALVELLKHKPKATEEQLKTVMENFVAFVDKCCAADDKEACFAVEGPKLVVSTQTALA
# assay: Isothermal titration calorimetry with BSA
# Type: binding, bovine
# experimentalSetup: ITC, H2O, 37 °C (Table S3)
One number for each entry, in µM.

// input: 3 molecules below; output: Kd for each
1. O=S(=O)(O)CCCCCCCCCCCSCc1cc(CSCCCCCCCCCCCS(=O)(=O)O)cc(CSCCCCCCCCCCCS(=O)(=O)O)c1
2. O=S(=O)(O)CCCSCc1cc2c(cc1CSCCCS(=O)(=O)O)OCCOCCOc1cc(CSCCCS(=O)(=O)O)c(CSCCCS(=O)(=O)O)cc1OCCOCCO2
3. O=S(=O)(O)OCCCCCCSCc1cc(CSCCCCCCOS(=O)(=O)O)cc(CSCCCCCCOS(=O)(=O)O)c1

4.97
52.1
1.4

----------
Field: IC50. Provide a value for each of the compounds that follow.
# Test system: H3N2
# assay: Influenza inhibition assay (ICC on MDCK cells, pretreatment)
# Assay type: cell-based
# experimentalSetup: Influenza A virus, pretreatment condition, read-out: pretreatment IC50, H3N2
Numbers only, in µM.

Worked examples follow.
Bench note: what IC50 did O=S(=O)(O)OCCCCCCCCCCCSCc1cc2c(cc1CSCCCCCCCCCCCOS(=O)(=O)O)OCCOCCOc1cc(CSCCCCCCCCCCCOS(=O)(=O)O)c(CSCCCCCCCCCCCOS(=O)(=O)O)cc1OCCOCCO2 [C4C11SO4] show?
6.4

Bench note: what IC50 did O=S(=O)(O)OCCCCCCSCc1cc(CSCCCCCCOS(=O)(=O)O)cc(CSCCCCCCOS(=O)(=O)O)c1 [B3C6SO4] show?
347

Continuing:
Bench note: what IC50 did O=S(=O)(O)CCCCCCCCCCCSCc1cc2c(cc1CSCCCCCCCCCCCS(=O)(=O)O)OCCOCCOc1cc(CSCCCCCCCCCCCS(=O)(=O)O)c(CSCCCCCCCCCCCS(=O)(=O)O)cc1OCCOCCO2 [C4C11SO3] show?
40.9

----------
# assayedTarget: glycoprotein D (gD) of HSV
# assay: Isothermal titration calorimetry with glycoprotein D
# experimentalSetup: ITC, 25°C
Field: Kd. Provide a value for each of the molecules that follow.
One number for each entry, in µM.

Worked examples follow.
Bench note: what Kd did O=S(=O)(O)OCCCCCCSCc1cc(CSCCCCCCOS(=O)(=O)O)cc(CSCCCCCCOS(=O)(=O)O)c1 show?
28.1

Bench note: what Kd did O=S(=O)(O)CCCCCCCCCCCSCc1cc(CSCCCCCCCCCCCS(=O)(=O)O)cc(CSCCCCCCCCCCCS(=O)(=O)O)c1 show?
23.2

Continuing:
Bench note: what Kd did O=S(=O)(O)OCCCCCCCCCCCSCc1cc(CSCCCCCCCCCCCOS(=O)(=O)O)cc(CSCCCCCCCCCCCOS(=O)(=O)O)c1 show?
28.2

----------
# assay: Partition coefficient octanol/water (UV-vis)
# Type: physicochemical
Field: logP. Provide a value for each of the molecules that follow.
One number for each entry.

Bench note: what logP did O=S(=O)(O)OCCCCCCCCCCCSCc1cc2c(cc1CSCCCCCCCCCCCOS(=O)(=O)O)OCCOCCOc1cc(CSCCCCCCCCCCCOS(=O)(=O)O)c(CSCCCCCCCCCCCOS(=O)(=O)O)cc1OCCOCCO2 show?
-1.76

// input: 3 molecules below; output: logP for each
1. O=S(=O)(O)OCCCCCCCCCCCSCc1cc(CSCCCCCCCCCCCOS(=O)(=O)O)cc(CSCCCCCCCCCCCOS(=O)(=O)O)c1
2. O=S(=O)(O)CCCCCCCCCCCSCc1cc2c(cc1CSCCCCCCCCCCCS(=O)(=O)O)OCCOCCOc1cc(CSCCCCCCCCCCCS(=O)(=O)O)c(CSCCCCCCCCCCCS(=O)(=O)O)cc1OCCOCCO2
3. O=S(=O)(O)OCCCCCCSCc1cc(CSCCCCCCOS(=O)(=O)O)cc(CSCCCCCCOS(=O)(=O)O)c1

1. -2.2
2. -2.25
3. -1.79

// input: 3 molecules below; output: logP for each
1. O=S(=O)(O)CCCCCCCCCCCSCc1cc(CSCCCCCCCCCCCS(=O)(=O)O)cc(CSCCCCCCCCCCCS(=O)(=O)O)c1
2. O=S(=O)(O)CCCCCCSCc1cc(CSCCCCCCS(=O)(=O)O)cc(CSCCCCCCS(=O)(=O)O)c1
3. O=S(=O)(O)CCCSCc1cc2c(cc1CSCCCS(=O)(=O)O)OCCOCCOc1cc(CSCCCS(=O)(=O)O)c(CSCCCS(=O)(=O)O)cc1OCCOCCO2

-2.43
-2.39
-2.45

----------
# assayedTarget: BSA (Bos taurus)
# Construct: purchased Sigma-Aldrich
# assay: Isothermal titration calorimetry with BSA
# Format: binding, bovine
# experimentalSetup: ITC, H2O, 25 °C (Table 5)
Field: N (binding sites, BSA). Provide a value for each of the compounds that follow.
Answers are plain numbers.

Query the reported N (binding sites, BSA) for BSA (Bos taurus); item: O=S(=O)(O)CCCCCCCCCCCSCc1cc2c(cc1CSCCCCCCCCCCCS(=O)(=O)O)OCCOCCOc1cc(CSCCCCCCCCCCCS(=O)(=O)O)c(CSCCCCCCCCCCCS(=O)(=O)O)cc1OCCOCCO2 [C4C11SO3]
2.63

Query the reported N (binding sites, BSA) for BSA (Bos taurus); item: O=S(=O)(O)OCCCCCCCCCCCSCc1cc2c(cc1CSCCCCCCCCCCCOS(=O)(=O)O)OCCOCCOc1cc(CSCCCCCCCCCCCOS(=O)(=O)O)c(CSCCCCCCCCCCCOS(=O)(=O)O)cc1OCCOCCO2 [C4C11SO4]
2.5

Continuing:
Query the reported N (binding sites, BSA) for BSA (Bos taurus); item: O=S(=O)(O)CCCSCc1cc2c(cc1CSCCCS(=O)(=O)O)OCCOCCOc1cc(CSCCCS(=O)(=O)O)c(CSCCCS(=O)(=O)O)cc1OCCOCCO2 [C4C3SO3]
0.5

Data origin: paper PMC12598866
